The measurements presented in this section are drawn from patent US20260174875A1.

tested-on: T1, human amylin-3(a) receptor (human, UniProt P30988 25-474; O60896 24-148)
T1 sequence (looked up) 1: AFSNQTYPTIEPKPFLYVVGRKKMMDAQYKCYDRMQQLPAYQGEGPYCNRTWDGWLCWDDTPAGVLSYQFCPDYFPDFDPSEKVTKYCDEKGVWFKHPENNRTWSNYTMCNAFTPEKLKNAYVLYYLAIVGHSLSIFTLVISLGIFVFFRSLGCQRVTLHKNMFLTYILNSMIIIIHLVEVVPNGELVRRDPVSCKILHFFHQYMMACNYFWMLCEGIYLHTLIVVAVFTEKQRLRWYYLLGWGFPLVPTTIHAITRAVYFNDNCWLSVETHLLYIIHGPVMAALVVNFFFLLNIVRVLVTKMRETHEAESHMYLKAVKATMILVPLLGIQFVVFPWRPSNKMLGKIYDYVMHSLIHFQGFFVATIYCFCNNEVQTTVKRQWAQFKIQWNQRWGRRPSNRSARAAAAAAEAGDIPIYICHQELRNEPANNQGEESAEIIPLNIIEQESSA
T1 sequence (looked up) 2: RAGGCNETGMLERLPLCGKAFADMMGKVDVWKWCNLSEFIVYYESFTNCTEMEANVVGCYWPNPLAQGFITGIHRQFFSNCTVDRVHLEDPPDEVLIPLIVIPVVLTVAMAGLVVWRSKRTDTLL
protocol-notes: cell-based or functional assay
Numbered stars: 1 amine (or outer) side, 2 acyl side, 3 side chain; on linkers, the order of the positions; unused ones are H or OH. Square brackets hold non-standard residues; d marks the D form. Side chains are listed from the residue outwards. * marks the point of attachment. C18 diacid = O=C(O)CCCCCCCCCCCCCCCCC(=O)*; γGlu = O=C(O)[C@H](CCC(=O)[*:2])N[*:1]; Chem. 28 = not defined here; Chem. 29 = not defined here; AEEA = NCCOCCOCC(=O)O; Aib = CC(C)(N)C(=O)O
reported-metric: hAMYR3 Potency, 1% HSA, EC50 [pM]

INSERT INTO results (binder, value_reported) VALUES
  ('Compound 65 (peptide) peptide: H[Aib]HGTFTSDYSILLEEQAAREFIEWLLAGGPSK([AEEA-AEEA-γGlu-C18 diacid])GEASQLSTAALGRLSAELHGLATLPRTETGSGSP-NH2', '127 pM'),
  ('Compound 37 (reading uncertain) peptide: H[Aib]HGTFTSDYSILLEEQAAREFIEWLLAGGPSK(Chem. 28)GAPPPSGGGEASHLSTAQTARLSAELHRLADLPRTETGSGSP-NH2', '75.7 pM'),
  ('Compound 83 (peptide) peptide: H[Aib]HGTFTSDYSILLEEQAAREFIEWLLAGGPSSGEASHLSTAQTQRLSAELHRLK([AEEA-AEEA-γGlu-C18 diacid])TLPRTETGSGSP-NH2', '45.7 pM');

Turning now to a further binder:
QUERY: Look up hAMYR3 Potency, 1% HSA, EC50 [pM] for this binder: Compound 10 (reading uncertain) peptide: Y[Aib]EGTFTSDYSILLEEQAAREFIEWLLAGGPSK(Chem. 29)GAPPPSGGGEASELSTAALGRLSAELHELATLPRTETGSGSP-NH2
RESULT: 175 pM
